Target or system: SCD1 (Mus musculus, UniProt P13516)
Construct: Mouse liver microsomes, prepared from mice fed a high-carbohydrate diet, were a source of the SCD; from tissue; host or cells: mouse liver microsomes (mice fed a high-carbohydrate diet)
Sequence (P13516 1-355): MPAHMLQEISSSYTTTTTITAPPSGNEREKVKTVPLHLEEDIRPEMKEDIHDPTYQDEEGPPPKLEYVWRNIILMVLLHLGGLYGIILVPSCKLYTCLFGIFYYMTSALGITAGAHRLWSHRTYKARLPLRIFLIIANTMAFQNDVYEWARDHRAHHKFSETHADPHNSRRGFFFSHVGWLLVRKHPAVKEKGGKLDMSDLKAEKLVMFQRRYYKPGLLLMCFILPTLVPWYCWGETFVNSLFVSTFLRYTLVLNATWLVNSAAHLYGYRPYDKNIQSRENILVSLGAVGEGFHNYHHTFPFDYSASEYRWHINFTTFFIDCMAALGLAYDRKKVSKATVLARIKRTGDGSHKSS
Protocol text: SCD assay: release of tritiated water from desaturation of 9,10-3H-stearoyl CoA, mouse liver microsomes
Assay type: biochemical
Condition info: mouse liver microsomes as SCD source; 300 nM (9,10) 3H-stearoyl CoA; 25 minutes at rt; read-out: IC50 (nM), in vitro inhibition of SCD1
Counter-ions that a name gives are not always drawn.
Quantity measured: IC50 (nM)
State the answer as a number, implicitly in nM.

Nc1conc1-c1ccc(OCc2ccc(S(=O)(=O)c3ccccc3)cc2)cc1    673
Nc1conc1-c1ccc(OCc2ccccc2Cl)cc1 [Example 22, hydrochloride]    1740
Nc1conc1-c1ccc(OCc2ccc3c(c2)C=CS3(=O)=O)cc1    411
Nc1conc1-c1ccc(OCc2cccc(OC(F)(F)F)c2)cc1 [Example 24, hydrochloride]    1350
Nc1conc1-c1ccc(OCc2ccc(I)cc2)cc1    126
Nc1conc1-c1ccc(OCC(=O)c2ccccc2)cc1 [Example 15, hydrochloride]    395

Bench note, SCD1 (Mus musculus, UniProt P13516): entry N#Cc1ccc(COc2ccc(-c3nocc3N)cc2)cc1 [Example 17, hydrochloride] , its IC50 = 603

Bench note, SCD1 (Mus musculus, UniProt P13516): Nc1conc1-c1ccc(OCc2ccc3c(c2)CCS3(=O)=O)cc1 , IC50 reads 259

Field IC50 (system: SCD1 (Mus musculus, UniProt P13516)) for entry CS(=O)(=O)c1ccc(COc2ccc(-c3nocc3N)cc2)cc1 = 40

Form field IC50 for item CS(=O)(=O)c1ccc(CCc2ccc(-c3nocc3N)cc2)cc1 on SCD1 (Mus musculus, UniProt P13516): 280

Given the compound CCS(=O)(=O)c1ccc(COc2ccc(-c3nocc3N)cc2)cc1 and test system SCD1 (Mus musculus, UniProt P13516), the measured IC50 is 65

Record CC(C)c1ccc(COc2ccc(-c3nocc3N)cc2)cc1 / SCD1 (Mus musculus, UniProt P13516), IC50 recorded as 161

Reading of IC50 for CS(=O)(=O)c1ccc(COc2ccc(-c3nocc3N)nc2)cc1 with SCD1 (Mus musculus, UniProt P13516): 466
